- target.or.system: recombinant Human Phosphodiesterase B2 (PDE4B2) (Homo sapiens)
- assay: Human Phosphodiesterase B2 Radiometric Assay (yttrium silicate SPA beads, [3H]cyclic AMP)
- Format: biochemical
- run.conditions: recombinant human PDE4B2, radiometric SPA assay, 8 nM [3H]cyclic AMP; read-out: PDE4B2 pIC50 (converted)
- Description: Human Phosphodiesterase B2 Radiometric Assay The assay uses recombinant Human Phosphodiesterase B2 (PDE4B2) produced in house (PrAZL0163), stored at −20° C. […] Bound [3H]cyclic AMP was measured using a Topcount NXT (Packard Bioscience, UK). pIC50 values (presented in Table 15) were determined using Xlfit3 curve fitting, using model 205.
property: log10 IC50 (log10 of the value in nM)
Please interpret these as log10 of IC50 where IC50 is in nM.

Reference set (5 entries):
> print(dat)
                                item.smiles    property  assay.value
1  CN1CCCN(Cc2ccc(-c3cccc(-n4c(=O)n([C@H]5CC[C@@H](NC(=O)c6nc7ccccc7[nH]c6=O)CC5)c(=O)c5cc(F)cnc54)c3)cc2)CC1  log10 IC50        -1.40
2  CCCN1CCN(Cc2ccc(-c3cccc(-n4c(=O)n([C@H]5CC[C@@H](NC(=O)c6cn7c(n6)CCCC7)CC5)c(=O)c5cc(F)cnc54)c3)cc2)CC1  log10 IC50        -2.10
3  CN1CCCN(Cc2ccc(-c3cccc(-n4c(=O)n([C@H]5CC[C@@H](NC(=O)c6cc7ccccc7cn6)CC5)c(=O)c5cc(F)cnc54)c3)cc2)CC1  log10 IC50        -1.60
4  Cc1cc(C(=O)N[C@H]2CC[C@@H](n3c(=O)c4cc(F)cnc4n(-c4cccc(-c5ccc(CN6CCC(CO)CC6)cc5)c4)c3=O)CC2)nn1C  log10 IC50        -1.30
5  Cc1cc(CN[C@H]2CC[C@@H](n3c(=O)c4cc(F)cnc4n(-c4cccc(-c5ccc(O)cc5CN5CCOCC5)c4)c3=O)CC2)nn1C  log10 IC50        -1.00

// for each molecule in input: emit log10 IC50
1. CN(C)Cc1ccc(-c2cccc(-n3c(=O)n([C@H]4CC[C@@H](NC(=O)c5ccccc5OCCO)CC4)c(=O)c4cc(F)cnc43)c2)cc1
2. CN(Cc1cc(O)ccc1-c1cccc(-n2c(=O)n([C@H]3CC[C@@H](NCc4cn5cc(F)ccc5n4)CC3)c(=O)c3cc(F)cnc32)c1)CC1(O)CC1
3. CN1CCCN(Cc2ccc(-c3cccc(-n4c(=O)n([C@H]5CC[C@@H](NC(=O)CN6CCCCC6)CC5)c(=O)c5cc(F)cnc54)c3)cc2)CC1
4. Cc1cc(-c2ccc(CN3CCNCC3)cc2)cc(-n2c(=O)n([C@H]3CC[C@@H](NC(=O)c4cn5cc(F)ccc5n4)CC3)c(=O)c3cc(F)cnc32)c1
5. O=C(N[C@H]1CC[C@@H](n2c(=O)c3cc(F)cnc3n(-c3cccc(-c4ccc(CO)cc4)c3)c2=O)CC1)c1cn2cc(F)ccc2n1
6. C[C@H]1COCCN1Cc1cc(O)ccc1-c1cccc(-n2c(=O)n([C@H]3CC[C@@H](NCc4cn5cc(F)ccc5n4)CC3)c(=O)c3cc(F)cnc32)c1

Ans:
1: -0.10; 2: -0.60; 3: -1.50; 4: -1.50; 5: -1.60; 6: -2.00

* * *

- target.or.system: recombinant Human Phosphodiesterase B2 (PDE4B2) (Homo sapiens, UniProt Q07343)
- Sequence (Q07343 1-564 isoform Q07343-2): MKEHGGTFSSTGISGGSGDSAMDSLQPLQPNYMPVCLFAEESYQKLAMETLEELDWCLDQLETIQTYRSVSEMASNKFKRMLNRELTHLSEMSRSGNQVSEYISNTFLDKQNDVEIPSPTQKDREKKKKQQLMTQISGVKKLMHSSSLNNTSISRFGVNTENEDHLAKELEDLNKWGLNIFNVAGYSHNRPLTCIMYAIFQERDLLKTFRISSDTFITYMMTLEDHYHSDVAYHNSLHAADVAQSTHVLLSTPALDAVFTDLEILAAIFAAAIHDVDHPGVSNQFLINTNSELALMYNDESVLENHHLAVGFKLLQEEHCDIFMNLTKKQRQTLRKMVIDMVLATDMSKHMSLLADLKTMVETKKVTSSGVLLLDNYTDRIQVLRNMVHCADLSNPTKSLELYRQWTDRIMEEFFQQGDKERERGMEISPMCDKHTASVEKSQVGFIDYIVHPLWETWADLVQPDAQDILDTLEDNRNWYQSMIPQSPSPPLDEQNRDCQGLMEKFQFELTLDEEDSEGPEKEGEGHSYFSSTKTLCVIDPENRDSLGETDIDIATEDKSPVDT
- assay: Human Phosphodiesterase B2 Radiometric Assay (yttrium silicate SPA beads, [3H]cyclic AMP)
- Type: biochemical
- run.conditions: recombinant human PDE4B2, radiometric SPA assay, 8 nM [3H]cyclic AMP; read-out: PDE4B2 pIC50 (converted)
property: IC50 (nM)
One number for each entry, in nM.

Some compounds with known IC50 results, for comparison:
> print(dat)
                                item.smiles                          target.or.system  property  assay.value
1  Cc1ccc2nc(CN[C@H]3CC[C@@H](n4c(=O)c5cc(F)cnc5n(-c5cccc(-c6ccc(O)cc6CN6CCOCC6)c5)c4=O)CC3)cn2c1  recombinant Human Phosphodiesterase B2 (PDE4B2) (Homo sapiens, UniProt Q07343)      IC50       0.0631
2  CCOCCNCc1ccc(-c2cccc(-n3c(=O)n([C@H]4CC[C@@H](NC(=O)c5cn6c(n5)CCCC6)CC4)c(=O)c4cc(F)cnc43)c2)cc1  recombinant Human Phosphodiesterase B2 (PDE4B2) (Homo sapiens, UniProt Q07343)      IC50       0.0398
3  CN(C)C1(C(=O)N[C@H]2CC[C@@H](n3c(=O)c4cc(F)cnc4n(-c4cccc(-c5ccc(CN6CCOCC6)cc5)c4)c3=O)CC2)CC1  recombinant Human Phosphodiesterase B2 (PDE4B2) (Homo sapiens, UniProt Q07343)      IC50      0.00631

// for each compound in input: emit IC50
1. CC(C)[C@@H](N)C(=O)N[C@H]1CC[C@@H](n2c(=O)c3cc(F)cnc3n(-c3cccc(-c4ccc(CN5CCCN(C)CC5)cc4)c3)c2=O)CC1
2. CC(C)N1CCN(Cc2ccc(-c3cccc(-n4c(=O)n([C@H]5CC[C@@H](NC(=O)CC6CCOCC6)CC5)c(=O)c5cc(F)cnc54)c3)cc2)CC1
3. COCCN(C)Cc1ccc(-c2cccc(-n3c(=O)n([C@H]4CC[C@@H](NC(=O)c5cc(C)n(C)n5)CC4)c(=O)c4cc(F)cnc43)c2)cc1

Ans:
1. 0.398
2. 0.1
3. 0.0316

* * *

- target.or.system: recombinant Human Phosphodiesterase B2 (PDE4B2) (Homo sapiens)
- assay: Human Phosphodiesterase B2 Radiometric Assay (yttrium silicate SPA beads, [3H]cyclic AMP)
- Type: biochemical
- run.conditions: recombinant human PDE4B2, radiometric SPA assay, 8 nM [3H]cyclic AMP; read-out: PDE4B2 pIC50 (converted)
- Procedure: Human Phosphodiesterase B2 Radiometric Assay The assay uses recombinant Human Phosphodiesterase B2 (PDE4B2) produced in house (PrAZL0163), stored at −20° C. […] Bound [3H]cyclic AMP was measured using a Topcount NXT (Packard Bioscience, UK). pIC50 values (presented in Table 15) were determined using Xlfit3 curve fitting, using model 205.
For each record, write down the corresponding IC50.
Answers are plain numbers, in nM.

> print(dat)
                                   compound                          target.or.system  property  assay.value
1  Cc1cc(C(=O)N[C@H]2CC[C@@H](n3c(=O)c4cc(F)cnc4n(-c4cccc(-c5ccc(CN6CCN(C7CCCC7)CC6)cc5)c4)c3=O)CC2)nn1C [Example 215]  recombinant Human Phosphodiesterase B2 (PDE4B2) (Homo sapiens)      IC50       0.0316
2  CN(C)CCCC(=O)N[C@H]1CC[C@@H](n2c(=O)c3cc(F)cnc3n(-c3cccc(-c4ccccc4)c3)c2=O)CC1 [Example 93]  recombinant Human Phosphodiesterase B2 (PDE4B2) (Homo sapiens)      IC50         5.01

# input for lookup
Q: Could you tell me which IC50 is on file for O=C(N[C@H]1CC[C@@H](n2c(=O)c3cc(F)cnc3n(-c3cccc(-c4cccc(CN5CCCCC5)c4)c3)c2=O)CC1)c1cn2cc(F)ccc2n1 [Example 14] ?
Ans: 0.2

* * *

- target.or.system: recombinant Human Phosphodiesterase B2 (PDE4B2) (Homo sapiens, UniProt Q07343)
- assay: Human Phosphodiesterase B2 Radiometric Assay (yttrium silicate SPA beads, [3H]cyclic AMP)
- Assay type: biochemical
- run.conditions: recombinant human PDE4B2, radiometric SPA assay, 8 nM [3H]cyclic AMP; read-out: PDE4B2 pIC50 (converted)
Consider the cut-off 0.2 nM. If the recorded IC50 is strictly smaller, the label is fulfilled; if not, the label is not fulfilled.

compound	class.assignment
O=c1c2cc(F)cnc2n(-c2cccc(-c3ccc(O)cc3CN3CCCOCC3)c2)c(=O)n1[C@H]1CC[C@@H](NCc2ncc3ccccn23)CC1 [Example 371]	not fulfilled
Cc1cccc(C(=O)N[C@H]2CC[C@@H](n3c(=O)c4cc(F)cnc4n(-c4cccc(-c5ccc(CN6CCCNCC6)cc5)c4)c3=O)CC2)n1 [Example 356]	fulfilled
CN(Cc1cn2cc(F)ccc2n1)[C@H]1CC[C@@H](n2c(=O)c3cc(F)cnc3n(-c3cccc(-c4ccc(O)cc4CN4CCOCC4)c3)c2=O)CC1 [Example 286]	not fulfilled
CCCCc1ccc(C(=O)N[C@H]2CC[C@@H](n3c(=O)c4cc(F)cnc4n(-c4cccc(-c5ccc(CN6CCCNCC6)cc5)c4)c3=O)CC2)nc1 [Example 351]	fulfilled

Q: Is IC50 of CC(C)N1CCN(Cc2ccc(-c3cccc(-n4c(=O)n([C@H]5CC[C@@H](NCc6c(C(F)(F)F)nn(C)c6Cl)CC5)c(=O)c5cc(F)cnc54)c3)cc2)CC1 [Example 262] strictly below 0.2 nM?
Ans: not fulfilled
